# assay.details: self-splicing fitness, log relative to wild type (ln ratio); higher = more splicing; Tetrahymena group I intron in knt gene, E. coli kanamycin selection, DiMSum; sequences stand for … in CUCUCU…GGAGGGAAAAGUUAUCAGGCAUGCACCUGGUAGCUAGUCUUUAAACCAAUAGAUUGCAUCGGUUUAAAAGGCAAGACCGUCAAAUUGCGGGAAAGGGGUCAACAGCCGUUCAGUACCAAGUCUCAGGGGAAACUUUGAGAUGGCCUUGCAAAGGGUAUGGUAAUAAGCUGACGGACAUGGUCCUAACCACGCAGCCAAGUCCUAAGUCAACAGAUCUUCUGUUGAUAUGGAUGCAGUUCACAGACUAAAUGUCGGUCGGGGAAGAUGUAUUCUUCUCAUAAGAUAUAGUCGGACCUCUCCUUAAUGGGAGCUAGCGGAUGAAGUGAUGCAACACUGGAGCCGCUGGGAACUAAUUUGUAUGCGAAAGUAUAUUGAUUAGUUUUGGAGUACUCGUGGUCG;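 note: selection with 25 µg/mL kanamycin versus none on LB agar overnight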
# condition.context: 37 °C
Returns met if the recorded self-splicing fitness (ln) is greater than or equal to -2, and not met otherwise.

Does the sequence CAUUAGCAAUAUUACGCCGG have recorded self-splicing fitness (ln) that is -2 or more? met

Does the sequence UCAAAGCAAUAUUACGCACU have recorded self-splicing fitness (ln) that is -2 or more? not met

Does the sequence AGCAAGCAAUAUUACGUAAA have recorded self-splicing fitness (ln) that is -2 or more? met

Does the sequence CUGUAGCAAUAUUACGGGAU have recorded self-splicing fitness (ln) that is -2 or more? not met

Does the sequence AGGUAGCAAUAUUACGGUCG have recorded self-splicing fitness (ln) that is -2 or more? met

Does the sequence UGGCAGCAAUAUUACGUUGC have recorded self-splicing fitness (ln) that is -2 or more? not met

Does the sequence GGACAGCAAUAUUACGCAUC have recorded self-splicing fitness (ln) that is -2 or more? met

Does the sequence CAAGAGCAAUAUUACGAGGA have recorded self-splicing fitness (ln) that is -2 or more? not met

###

# assay.details: self-splicing fitness, log relative to wild type (ln ratio); higher = more splicing; Tetrahymena group I intron in knt gene, E. coli kanamycin selection, DiMSum; sequences stand for … in CUCUCU…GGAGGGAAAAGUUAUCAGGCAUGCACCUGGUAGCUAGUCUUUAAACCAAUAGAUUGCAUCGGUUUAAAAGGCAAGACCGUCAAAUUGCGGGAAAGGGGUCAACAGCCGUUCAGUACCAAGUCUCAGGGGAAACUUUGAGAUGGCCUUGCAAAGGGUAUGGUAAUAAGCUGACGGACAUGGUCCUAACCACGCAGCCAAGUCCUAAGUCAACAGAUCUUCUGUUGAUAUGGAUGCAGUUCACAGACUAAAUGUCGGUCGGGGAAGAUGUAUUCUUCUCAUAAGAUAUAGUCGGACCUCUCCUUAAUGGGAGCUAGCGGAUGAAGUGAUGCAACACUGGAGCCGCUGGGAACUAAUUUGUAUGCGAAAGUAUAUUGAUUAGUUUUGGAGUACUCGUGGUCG
# condition.context: 30 °C
measured.parameter: self-splicing fitness (ln)
I only need the number, thanks.

Query (sequence): ACUCAGCAAUAUUACGUGAU ; field requested: self-splicing fitness (ln) -1

Query (sequence): UUCUAGCAAUAUUACGGCCG ; field requested: self-splicing fitness (ln) -1.96

Query (sequence): AACGAGCAAUAUUACGAUGU ; field requested: self-splicing fitness (ln) -2.35

Query (sequence): UAGUAGCAAUAUUACGUAUA ; field requested: self-splicing fitness (ln) -1.69

Query (sequence): CAGGAGCAAUAUUACGGCUA ; field requested: self-splicing fitness (ln) -2.6

Query (sequence): ACAUAGCAAUAUUACGGUAC ; field requested: self-splicing fitness (ln) -4.24

Query (sequence): UUCCAGCAAUAUUACGAGCU ; field requested: self-splicing fitness (ln) -3.64

Query (sequence): ACCUAGCAAUAUUACGACGG ; field requested: self-splicing fitness (ln) -1.3

Query (sequence): UCAAAGCAAUAUUACGCACU ; field requested: self-splicing fitness (ln) -2.08

Query (sequence): CGGUAGCAAUAUUACGCAGU ; field requested: self-splicing fitness (ln) -4.22

Query (sequence): CGGCAGCAAUAUUACGUGGC ; field requested: self-splicing fitness (ln) -3.19

Query (sequence): GACGAGCAAUAUUACGUUAU ; field requested: self-splicing fitness (ln) -4.17

Query (sequence): ACGAAGCAAUAUUACGAUGG ; field requested: self-splicing fitness (ln) -2.34

Query (sequence): CCUAAGCAAUAUUACGGUCU ; field requested: self-splicing fitness (ln) -3.89

Query (sequence): GAAUAGCAAUAUUACGCGCU ; field requested: self-splicing fitness (ln) -0.615

Query (sequence): UGAAAGCAAUAUUACGCUUU ; field requested: self-splicing fitness (ln) -4.77

###

Exercise: state measured self-splicing fitness (ln) for each of the sequences provided.
# assay.details: self-splicing fitness, log relative to wild type (ln ratio); higher = more splicing; Tetrahymena group I intron in knt gene, E. coli kanamycin selection, DiMSum; sequences stand for … in CUCUCU…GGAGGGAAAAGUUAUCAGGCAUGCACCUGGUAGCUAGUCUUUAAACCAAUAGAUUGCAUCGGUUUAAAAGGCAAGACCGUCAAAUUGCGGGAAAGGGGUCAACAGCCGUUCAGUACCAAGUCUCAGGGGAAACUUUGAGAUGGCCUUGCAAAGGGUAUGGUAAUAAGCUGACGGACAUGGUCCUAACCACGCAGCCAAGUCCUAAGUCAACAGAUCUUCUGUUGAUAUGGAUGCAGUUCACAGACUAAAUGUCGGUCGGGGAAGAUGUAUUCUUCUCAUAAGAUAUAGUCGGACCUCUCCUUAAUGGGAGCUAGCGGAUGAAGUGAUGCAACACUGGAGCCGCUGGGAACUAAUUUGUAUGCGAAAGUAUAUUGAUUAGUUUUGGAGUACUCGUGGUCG
# condition.context: 37 °C
I only need the number, thanks.

Query (sequence): GCGCAGCAAUAUUACGUAUG ; field requested: self-splicing fitness (ln) -1.8

Query (sequence): UCGAAGCAAUAUUACGAUUA ; field requested: self-splicing fitness (ln) -0.794

Query (sequence): UCAAAGCAAUAUUACGCUUU ; field requested: self-splicing fitness (ln) -1.72

Query (sequence): CGAUAGCAAUAUUACGAUGA ; field requested: self-splicing fitness (ln) -0.503

Query (sequence): AUGAAGCAAUAUUACGGUUC ; field requested: self-splicing fitness (ln) -1.8

Query (sequence): UACCAGCAAUAUUACGUAAG ; field requested: self-splicing fitness (ln) -1.99

Query (sequence): AAGCAGCAAUAUUACGAGAU ; field requested: self-splicing fitness (ln) -1.61

Query (sequence): AAAGAGCAAUAUUACGUGUA ; field requested: self-splicing fitness (ln) -2.27

Query (sequence): UGUAAGCAAUAUUACGAUAG ; field requested: self-splicing fitness (ln) -1.87

Query (sequence): GUAUAGCAAUAUUACGACCU ; field requested: self-splicing fitness (ln) -0.345

Query (sequence): ACUUAGCAAUAUUACGACGA ; field requested: self-splicing fitness (ln) -0.322

Query (sequence): UUAGAGCAAUAUUACGUUAC ; field requested: self-splicing fitness (ln) -2.17

Query (sequence): UUCUAGCAAUAUUACGUCGU ; field requested: self-splicing fitness (ln) -2.19

Query (sequence): GUAGAGCAAUAUUACGCCGG ; field requested: self-splicing fitness (ln) -0.336

Query (sequence): UGACAGCAAUAUUACGUGAG ; field requested: self-splicing fitness (ln) -0.365

Query (sequence): GUGUAGCAAUAUUACGCGUA ; field requested: self-splicing fitness (ln) -0.729

###

Exercise: state measured self-splicing fitness (ln) for each of the sequences provided.
# assay.details: self-splicing fitness, log relative to wild type (ln ratio); higher = more splicing; Tetrahymena group I intron in knt gene, E. coli kanamycin selection, DiMSum; sequences stand for … in CUCUCU…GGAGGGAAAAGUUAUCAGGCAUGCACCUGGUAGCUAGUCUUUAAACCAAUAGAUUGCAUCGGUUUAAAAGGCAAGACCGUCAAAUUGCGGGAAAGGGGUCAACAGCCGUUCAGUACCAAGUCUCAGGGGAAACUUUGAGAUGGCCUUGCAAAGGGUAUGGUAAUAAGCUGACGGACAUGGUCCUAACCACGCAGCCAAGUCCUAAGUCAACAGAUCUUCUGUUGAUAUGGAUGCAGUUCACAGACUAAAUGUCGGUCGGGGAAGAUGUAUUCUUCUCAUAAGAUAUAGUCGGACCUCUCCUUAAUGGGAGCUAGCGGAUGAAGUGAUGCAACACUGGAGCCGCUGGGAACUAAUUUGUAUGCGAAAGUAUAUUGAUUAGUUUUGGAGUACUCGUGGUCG
# condition.context: 30 °C
I only need the number, thanks.

Query (sequence): CCAGAGCAAUAUUACGCGGG ; field requested: self-splicing fitness (ln) -3.33

Query (sequence): AUUCAGCAAUAUUACGUGGG ; field requested: self-splicing fitness (ln) -2.63

Query (sequence): GAUUAGCAAUAUUACGGCUG ; field requested: self-splicing fitness (ln) -0.996

Query (sequence): CAUCAGCAAUAUUACGUCCA ; field requested: self-splicing fitness (ln) -1.71

Query (sequence): AAGUAGCAAUAUUACGAUGA ; field requested: self-splicing fitness (ln) -0.567

Query (sequence): UCCAAGCAAUAUUACGAUCG ; field requested: self-splicing fitness (ln) -2.65

Query (sequence): CACUAGCAAUAUUACGGCGU ; field requested: self-splicing fitness (ln) -1.8

Query (sequence): AUAUAGCAAUAUUACGGUAC ; field requested: self-splicing fitness (ln) -3.69

Query (sequence): UUUCAGCAAUAUUACGGAGU ; field requested: self-splicing fitness (ln) -2.8

Query (sequence): GUGGAGCAAUAUUACGCACG ; field requested: self-splicing fitness (ln) -2.63

Query (sequence): CCCAAGCAAUAUUACGAUAC ; field requested: self-splicing fitness (ln) -3.63

Query (sequence): AAACAGCAAUAUUACGGGAA ; field requested: self-splicing fitness (ln) -2.41

Query (sequence): ACCAAGCAAUAUUACGGCCU ; field requested: self-splicing fitness (ln) -0.444

Query (sequence): UUUCAGCAAUAUUACGGCAU ; field requested: self-splicing fitness (ln) -1.87

Query (sequence): UAUUAGCAAUAUUACGCGGG ; field requested: self-splicing fitness (ln) -2.9

Query (sequence): CUAAAGCAAUAUUACGGGAC ; field requested: self-splicing fitness (ln) -2.11

Query (sequence): CGCUAGCAAUAUUACGCUAA ; field requested: self-splicing fitness (ln) -1.93

Query (sequence): CAUGAGCAAUAUUACGCCCA ; field requested: self-splicing fitness (ln) -1.49

Query (sequence): CGGCAGCAAUAUUACGCCGU ; field requested: self-splicing fitness (ln) -3.6

Query (sequence): UAUAAGCAAUAUUACGAUAA ; field requested: self-splicing fitness (ln) -1.17

Query (sequence): GCUUAGCAAUAUUACGCCAC ; field requested: self-splicing fitness (ln) -1.67

Query (sequence): UUGUAGCAAUAUUACGUGGU ; field requested: self-splicing fitness (ln) -3.35

Query (sequence): GUAGAGCAAUAUUACGCUAA ; field requested: self-splicing fitness (ln) -0.515

Query (sequence): CCUAAGCAAUAUUACGGUGG ; field requested: self-splicing fitness (ln) -2.76

Query (sequence): UAGGAGCAAUAUUACGGGCA ; field requested: self-splicing fitness (ln) -2.72

Query (sequence): CGAUAGCAAUAUUACGGGAC ; field requested: self-splicing fitness (ln) -4.19

Query (sequence): AGGAAGCAAUAUUACGAAUC ; field requested: self-splicing fitness (ln) -2.86

Query (sequence): GCUAAGCAAUAUUACGCCUA ; field requested: self-splicing fitness (ln) -1.55

Query (sequence): AUCAAGCAAUAUUACGUUGG ; field requested: self-splicing fitness (ln) -2.7

Query (sequence): UUUCAGCAAUAUUACGCGAG ; field requested: self-splicing fitness (ln) -1.16

Query (sequence): GCAUAGCAAUAUUACGCCCG ; field requested: self-splicing fitness (ln) -1.24

Query (sequence): UGUCAGCAAUAUUACGUAAG ; field requested: self-splicing fitness (ln) -0.352

Query (sequence): AAGUAGCAAUAUUACGCGCU ; field requested: self-splicing fitness (ln) -1.47

Query (sequence): GUGCAGCAAUAUUACGUGUC ; field requested: self-splicing fitness (ln) -2.72
